Biological target: hTSLP-His (human, UniProt Q969D9 29-159, limits assumed)
Assay: cell-based or functional assay
measurement-kind: IC50 [pM], STAT5 phosphorylation inhibition in MUTZ5 cells (pM)
Numeric answer only, unit pM assumed.

What does the data say about its IC50 [pM], STAT5 phosphorylation inhibition in MUTZ5 cells? Entry: BDG38.098 (antibody, V domains shown, IgG1) VH: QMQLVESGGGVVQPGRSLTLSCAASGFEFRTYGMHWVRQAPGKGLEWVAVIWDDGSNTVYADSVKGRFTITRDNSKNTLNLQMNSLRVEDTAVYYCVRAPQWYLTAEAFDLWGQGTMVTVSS VL: SYVLTQPPSVSVAPGQTATITCGGNLIGARLVHWYQQKPGQAPVLVIYDDSDRPSRIPERFSGSNIGNTATLTISRVEAGDEADYYCQVWDYSSDSMVFGGGTKLTVL
68.8

Same thing, different binder: BDG38.081 (antibody, V domains shown, IgG1) VH: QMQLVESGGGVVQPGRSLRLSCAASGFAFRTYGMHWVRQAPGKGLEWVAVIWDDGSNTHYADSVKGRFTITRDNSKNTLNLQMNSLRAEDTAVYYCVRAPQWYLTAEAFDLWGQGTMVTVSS VL: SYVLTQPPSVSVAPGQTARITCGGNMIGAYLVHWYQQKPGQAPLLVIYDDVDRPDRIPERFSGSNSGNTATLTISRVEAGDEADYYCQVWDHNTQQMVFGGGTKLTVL
38.7
